Biological target: α-glucosidase
Test: pNPG hydrolysis assay, absorbance at […] nm, pH […]
Answer each item with its documented pIC50.
Answers are plain numbers, as −log10 of the molar value.

Worked examples, 2 compounds total:
O=C(O[C@@H]1Cc2c(O)cc(O)cc2O[C@@H]1c1cc(O)c(O)c(O)c1)c1cc(O)c(O)c(O)c1 :: 3.89
CCN1C(=O)CC[C@@H]1c1c(O)cc(O)c2c1O[C@H](c1cc(O)c(O)c(O)c1)[C@H](OC(=O)c1cc(O)c(O)c(O)c1)C2 :: 4.15

QUERY: Note pIC50 for the compound shown: CCN1C(=O)CC[C@H]1c1c(O)cc(O)c2c1O[C@H](c1cc(O)c(O)c(O)c1)[C@H](OC(=O)c1cc(O)c(O)c(O)c1)C2
RESULT: 3.79

Ref: paper PMC8658928
